// pKi lookup, one value per entry
# Measured On: Kynureninase (Pseudomonas fluorescens, UniProt P83788)
# Construct: Bacterial kynureninase was prepared from cells of Pseudomonas fluorescens; endogenous in cells; partially purified by DEAE-cellulose and ammonium sulfate
# Sequence (P83788 whole entry): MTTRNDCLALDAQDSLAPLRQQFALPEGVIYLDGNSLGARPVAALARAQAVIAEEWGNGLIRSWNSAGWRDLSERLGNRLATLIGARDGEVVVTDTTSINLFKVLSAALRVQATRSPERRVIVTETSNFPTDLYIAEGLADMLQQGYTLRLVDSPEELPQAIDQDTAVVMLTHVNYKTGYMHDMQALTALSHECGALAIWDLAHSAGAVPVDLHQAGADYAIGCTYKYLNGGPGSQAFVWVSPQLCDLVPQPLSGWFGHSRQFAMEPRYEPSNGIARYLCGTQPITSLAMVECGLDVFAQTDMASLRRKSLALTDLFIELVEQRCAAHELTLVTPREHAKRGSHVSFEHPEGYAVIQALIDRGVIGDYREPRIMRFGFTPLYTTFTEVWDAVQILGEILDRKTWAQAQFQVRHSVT
# Assay Details: Competitive inhibition of kynureninase by S-aryl cysteines and S-aryl cysteine sulfones
# Format: biochemical
# Experimental Context: Table 1; competitive inhibition vs L-kynurenine, pH 7.8, 25° C.; footnote 1: 0.07 is an upper limit; read-out: Ki
Recall that pKi is obtained by taking minus log10 of the concentration measured in molar.

Past entries and their recorded results:
Compound	Obs Value
Nc1ccc(S(=O)(=O)C[C@H](N)C(=O)O)cc1	5.07
Nc1ccc(SC[C@H](N)C(=O)O)cc1	3.85
N[C@@H](CS(=O)(=O)c1ccccc1)C(=O)O [S-phenyl-L-cysteine sulfone]	5.41
N[C@@H](CS(=O)(=O)c1ccc([N+](=O)[O-])cc1)C(=O)O	4.92
N[C@@H](CSc1ccccc1[N+](=O)[O-])C(=O)O [S-(2-nitrophenyl)-L-cysteine]	4.00
N[C@@H](CSc1ccccc1)C(=O)O [S-phenyl-L-cysteine]	3.15

Query pKi for Nc1ccccc1SC[C@H](N)C(=O)O [S-(2-aminophenyl)-L-cysteine]
5.60

Query pKi for N[C@@H](CS(=O)(=O)c1ccccc1[N+](=O)[O-])C(=O)O
4.64
